All values here come from the supplement of paper PMC9262897.

System: E. coli TESEC Mtb Alr
Experiment: growth (OD600 after 10 h); higher = more growth (less inhibition)
Conditions: arabinose 10000000 nM; compound 0.1 mM; raw OD600 reference: median of DMSO wells 0.146, cell-free background 0.041
Where a name gives a salt, the structure may show the parent alone.

{"columns": ["Compound", "growth"],
 "data": [
  ["CN1[C@@H]2CC[C@H]1C[C@@H](OC(=O)c1c[nH]c3ccccc13)C2 [Tropisetron HCl]", 0.158],
  ["CC1(C)OC(=O)NC1=O [Dimethadione]", 0.139],
  ["CN(C)CC/C=C1/c2ccccc2COc2ccc(CC(=O)O)cc21 [Olopatadine hydrochloride]", 0.126],
  ["Cc1onc(-c2ccccc2Cl)c1C(=O)N[C@@H]1C(=O)N2[C@@H]1SC(C)(C)[C@@H]2C(=O)O [Cloxacillin sodium salt]", 0.144],
  ["C[C@]12CC[C@@H]3c4ccc(OS(=O)(=O)O)cc4CC[C@H]3[C@@H]1CCC2=O [Estropipate]", 0.127],
  ["O=C(O)c1ccccc1OP(=O)(O)O [Fosfosal]", 0.137],
  ["COc1ccc2c(c1)c(CC(=O)OCC(=O)O)c(C)n2C(=O)c1ccc(Cl)cc1 [Acemetacin]", 0.131],
  ["Nc1nc(=O)n([C@@H]2CS[C@H](CO)O2)cc1F [(-)-Emtricitabine]", 0.147],
  ["Cn1c(=O)c2nc[nH]c2n(C)c1=O [Theophylline monohydrate]", 0.158],
  ["CC(=O)OCC(=O)NCCCOc1cccc(CN2CCCCC2)c1 [Roxatidine Acetate HCl]", 0.139],
  ["C=C(NC(=O)C(=C)NC(=O)c1csc(C2=N[C@@H]3c4csc(n4)[C@H]4NC(=O)c5csc(n5)[C@H]([C@](C)(O)[C@@H](C)O)NC(=O)[C@H]5CSC(=N5)/C(=C/C)NC(=O)[C@H]([C@@H](C)O)NC(=O)c5csc(n5)[C@]3(CC2)NC(=O)[C@H](C)NC(=O)C(=C)NC(=O)[C@H](C)NC(=O)[C@H]([C@@H](C)CC)N[C@@H]2C=Cc3c([C@H](C)O)cc(nc3[C@H]2O)C(=O)O[C@@H]4C)n1)C(N)=O [Thiostrepton]", 0.229],
  ["CC=CC(=O)N(CC)c1ccccc1C [Crotamiton]", 0.158],
  ["CCCN(CCC)C(=O)C(CCC(=O)O)NC(=O)c1ccccc1 (configuration not stated) [Proglumide]", 0.17],
  ["CC(C)(Oc1ccc(C2CC2(Cl)Cl)cc1)C(=O)O (configuration not stated) [Ciprofibrate]", 0.123],
  ["CCCCC(=O)N(Cc1ccc(-c2ccccc2-c2nnn[nH]2)cc1)[C@H](C(=O)O)C(C)C [Valsartan]", 0.151],
  ["CC(C)(Oc1ccc(Cl)cc1)C(=O)O [Clofibric acid]", 0.154],
  ["NC(=O)OCC(COC(N)=O)c1ccccc1 [Felbamate]", 0.137],
  ["C[C@]12CC[C@H]3[C@@H](CCC4=CC(=O)CC[C@@]43C)[C@@H]1CC[C@@H]2C(=O)CO [Deoxycorticosterone]", 0.127],
  ["C[C@@H]1C[C@H]2[C@@H]3C[C@H](F)C4=CC(=O)C=C[C@]4(C)[C@@]3(F)[C@@H](O)C[C@]2(C)[C@@]1(O)C(=O)CO [Flumethasone]", 0.127],
  ["CCCCC1C(=O)N(c2ccccc2)N(c2ccccc2)C1=O [Phenylbutazone]", 0.132],
  ["CC(C(=O)O)c1ccc(N2Cc3ccccc3C2=O)cc1 (configuration not stated) [Indoprofen]", 0.128],
  ["CCC[C@H](N[C@@H](C)C(=O)N1[C@H](C(=O)O)C[C@@H]2CCCC[C@@H]21)C(=O)OCC [Perindopril]", 0.149],
  ["Cc1ccc(O)c([C@H](CCN(C(C)C)C(C)C)c2ccccc2)c1 [Tolterodine tartrate]", 0.191],
  ["Clc1cnccn1 [2-Chloropyrazine]", 0.196],
  ["CCOC(=O)O[C@]1(C(=O)COC(=O)CC)CC[C@H]2[C@@H]3CCC4=CC(=O)C=C[C@]4(C)[C@H]3[C@@H](O)C[C@@]21C [Prednicarbate]", 0.174],
  ["NS(=O)(=O)c1cc2c(cc1Cl)N=CNS2(=O)=O [Chlorothiazide]", 0.141],
  ["O=C(O)c1cn(-c2ccc(F)cc2)c2cc(N3CCNCC3)c(F)cc2c1=O [Sarafloxacin]", 0.0412],
  ["CN(C)CCN(Cc1ccc(Cl)cc1)c1ccccn1 [Chloropyramine hydrochloride]", 0.128],
  ["CC(C)NCC(O)c1ccc(O)c(O)c1 (single isomer, unassigned; (+)) [(+)-Isoproterenol (+)-bitartrate salt]", 0.137],
  ["CC(CCc1ccc(O)cc1)NCCc1ccc(O)c(O)c1 (configuration not stated) [Dobutamine hydrochloride]", 0.115],
  ["O=C(O)Cc1sc(-c2ccccc2)nc1-c1ccc(Cl)cc1 [Fentiazac]", 0.158],
  ["CCCCC(=O)O[C@H]1CC[C@H]2[C@@H]3CCc4cc(O)ccc4[C@H]3CC[C@]12C [Estradiol Valerate]", 0.13]
]}
